Tested on: 233499-124-R-J3-PDC complex spheroid viability
protocol-details: Anticancer human tumor 233499-124-R-J3-PDC patient-derived colon adenocarcinoma cell line growth inhibition [CLK]
measurement-context: second compound 0.1 µM; first compound 3.16 µM; stronger effect = lower value
property-label: viability, T/C (%)
Give bare numbers, in %.

* O=c1[nH]cc(F)c(=O)[nH]1 + CNC(=O)c1ccc(Nc2nc(OC3CCCC3)c3c(-c4ccc5nc(C)oc5c4)c[nH]c3n2)c(OC)c1 | 15.1

List reported viability, T/C for each of these compounds:
1. C#Cc1c(F)ccc2cc(O)cc(-c3ncc4c(N5CC6CCC(C5)N6)nc(OCC56CCCN5CC(F)C6)nc4c3F)c12 (stereo not given) + CNC(=O)c1ccc(Nc2nc(OC3CCCC3)c3c(-c4ccc5nc(C)oc5c4)c[nH]c3n2)c(OC)c1
2. COC1C=CCC(C)C(C)S(=O)(=O)NC(=O)c2ccc3c(c2)N(CC2CCC21)CC1(CCCc2cc(Cl)ccc21)CO3 (stereo not given) + CN1CCN(c2cc(C(=O)Nc3cc4cc(-c5cnn(C)c5)ccc4cn3)ccn2)CC1

### Response
[74.3, 57.3]

List reported viability, T/C for each of these compounds:
1. COc1cccc2c1C(=O)c1c(O)c3c(c(O)c1C2=O)CC(O)(C(=O)CO)CC3OC1CC(N)C(O)C(C)O1 (stereo not given) + CNC(=O)c1ccc(Nc2nc(OC3CCCC3)c3c(-c4ccc5nc(C)oc5c4)c[nH]c3n2)c(OC)c1
2. CC1(C)CCC(CN2CCN(c3ccc(C(=O)NS(=O)(=O)c4ccc(NCC5CCOCC5)c([N+](=O)[O-])c4)c(Oc4cnc5[nH]ccc5c4)c3)CC2)=C(c2ccc(Cl)cc2)C1 + CN1CCN(c2cc(C(=O)Nc3cc4cc(-c5cnn(C)c5)ccc4cn3)ccn2)CC1

### Response
1: 17; 2: 112

----------
Test system: 233499-124-R-J3-PDC complex spheroid viability
protocol-details: Anticancer human tumor 233499-124-R-J3-PDC cell line growth inhibition [CLK];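 further: spheroids exposed to the drug combinations for seven days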;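 on viability, T/C: percent viability relative to DMSO vehicle control wells taken as 100%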
measurement-context: second compound 1 µM; first compound 1 µM; stronger effect = lower value
property-label: viability, T/C (%)
Give bare numbers, in %.

Reference set (2 entries):
* O=c1[nH]cc(F)c(=O)[nH]1 + CN1CCN(c2cc(C(=O)Nc3cc4cc(-c5cnn(C)c5)ccc4cn3)ccn2)CC1 | 2.1
* COC1C=CCC(C)C(C)S(=O)(=O)NC(=O)c2ccc3c(c2)N(CC2CCC21)CC1(CCCc2cc(Cl)ccc21)CO3 (stereo not drawn) + CN1CCN(c2cc(C(=O)Nc3cc4cc(-c5cnn(C)c5)ccc4cn3)ccn2)CC1 | 0.32

Kindly consider the entry below.
### Prompt Supply measured viability, T/C of COc1c(OCCCN2CCOCC2)ccc2c3n(c(=NC(=O)c4cnc(N)nc4)nc12)CCN3 + CNC(=O)c1ccc(Nc2nc(OC3CCCC3)c3c(-c4ccc5nc(C)oc5c4)c[nH]c3n2)c(OC)c1 in your reply.
### Response 3.52

----------
Would you kindly list pIC50 for each of these molecules?
Tested on: 233499-124-R-J3-PDC complex spheroid viability
protocol-details: Anticancer human tumor 233499-124-R-J3-PDC cell line growth inhibition [CLK];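 further: spheroids exposed to the drug combinations for seven days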
measurement-context: curve of first compound; second compound 0.1 µM
Give bare numbers, as −log10 of the molar value.

List reported pIC50 for each of these molecules:
1. O=c1[nH]cc(F)c(=O)[nH]1 + CNC(=O)c1ccc(Nc2nc(OC3CCCC3)c3c(-c4ccc5nc(C)oc5c4)c[nH]c3n2)c(OC)c1
2. NC(=O)C(=Cn1cnc(-c2cc(C(F)(F)F)cc(C(F)(F)F)c2)n1)c1cncnc1 + CNC(=O)c1ccc(Nc2nc(OC3CCCC3)c3c(-c4ccc5nc(C)oc5c4)c[nH]c3n2)c(OC)c1
3. COc1cccc2c1C(=O)c1c(O)c3c(c(O)c1C2=O)CC(O)(C(=O)CO)CC3OC1CC(N)C(O)C(C)O1 (stereo not given) + CNC(=O)c1ccc(Nc2nc(OC3CCCC3)c3c(-c4ccc5nc(C)oc5c4)c[nH]c3n2)c(OC)c1

### Response
1: 6.70; 2: 6.58; 3: 6.54

----------
Would you kindly list viability, T/C for each of these molecules?
Test system: 233499-124-R-J3-PDC complex spheroid viability
protocol-details: Anticancer human tumor 233499-124-R-J3-PDC cell line growth inhibition [CLK];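 further: spheroids exposed to the drug combinations for seven days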;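 on viability, T/C: percent viability relative to DMSO vehicle control wells taken as 100%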
measurement-context: second compound 0.316 µM; first compound 0.00316 µM; stronger effect = lower value
One number for each entry, in %.

• CCc1c2c(nc3ccc(O)cc13)-c1cc3c(c(=O)n1C2)COC(=O)[C@]3(O)CC + CN1CCN(c2cc(C(=O)Nc3cc4cc(-c5cnn(C)c5)ccc4cn3)ccn2)CC1 = 88
• COc1c(OCCCN2CCOCC2)ccc2c3n(c(=NC(=O)c4cnc(N)nc4)nc12)CCN3 + CNC(=O)c1ccc(Nc2nc(OC3CCCC3)c3c(-c4ccc5nc(C)oc5c4)c[nH]c3n2)c(OC)c1 = 75.3
• CCc1c2c(nc3ccc(O)cc13)-c1cc3c(c(=O)n1C2)COC(=O)[C@]3(O)CC + CNC(=O)c1ccc(Nc2nc(OC3CCCC3)c3c(-c4ccc5nc(C)oc5c4)c[nH]c3n2)c(OC)c1 = 65.5

Kindly consider the entry below.
### Prompt Supply measured viability, T/C of Cn1ncnc1[C@H]1c2n[nH]c(=O)c3cc(F)cc(c23)N[C@@H]1c1ccc(F)cc1 + CN1CCN(c2cc(C(=O)Nc3cc4cc(-c5cnn(C)c5)ccc4cn3)ccn2)CC1 in your reply.
### Response 101

----------
System: 233499-124-R-J3-PDC complex spheroid viability
protocol-details: Anticancer human tumor 233499-124-R-J3-PDC cell line growth inhibition [CLK];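 further: spheroids exposed to the drug combinations for seven days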
measurement-context: curve of first compound; second compound 10 µM
pIC50: −log10 of the molar value.
Would you kindly list pIC50 for each of these molecules?

Reference set (3 entries):
* Nc1ccccc1NC(=O)c1ccc(CNC(=O)OCc2cccnc2)cc1 + CNC(=O)c1ccc(Nc2nc(OC3CCCC3)c3c(-c4ccc5nc(C)oc5c4)c[nH]c3n2)c(OC)c1 | 6.80
* C=CC(=O)Nc1cc(Nc2nccc(-c3cn(C)c4ccccc34)n2)c(OC)cc1N(C)CCN(C)C + CN1CCN(c2cc(C(=O)Nc3cc4cc(-c5cnn(C)c5)ccc4cn3)ccn2)CC1 | > 9.02
* CC(C)CC(NC(=O)C(Cc1ccccc1)NC(=O)c1cnccn1)B(O)O (stereo not given) + CN1CCN(c2cc(C(=O)Nc3cc4cc(-c5cnn(C)c5)ccc4cn3)ccn2)CC1 | > 9.02

List reported pIC50 for each of these molecules:
1. Nc1ccn(C2OC(CO)C(O)C2(F)F)c(=O)n1 (stereo not given) + CNC(=O)c1ccc(Nc2nc(OC3CCCC3)c3c(-c4ccc5nc(C)oc5c4)c[nH]c3n2)c(OC)c1
2. Nc1ccccc1NC(=O)c1ccc(CNC(=O)OCc2cccnc2)cc1 + CN1CCN(c2cc(C(=O)Nc3cc4cc(-c5cnn(C)c5)ccc4cn3)ccn2)CC1

### Response
1. 7.36
2. > 7.50

----------
System: 233499-124-R-J3-PDC complex spheroid viability
protocol-details: Anticancer human tumor 233499-124-R-J3-PDC cell line growth inhibition [CLK];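 further: spheroids exposed to the drug combinations for seven days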;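 on viability, T/C: percent viability relative to DMSO vehicle control wells taken as 100%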
measurement-context: second compound 0.316 µM; first compound 0.1 µM; stronger effect = lower value
Would you kindly list viability, T/C for each of these compounds?
Answers are plain numbers, in %.

* CC1COCCN1c1cc(C2(S(C)(=N)=O)CC2)nc(-c2ccnc3[nH]ccc23)n1 (stereo not given) + CN1CCN(c2cc(C(=O)Nc3cc4cc(-c5cnn(C)c5)ccc4cn3)ccn2)CC1 | 93.3
* O=c1[nH]cc(F)c(=O)[nH]1 + CN1CCN(c2cc(C(=O)Nc3cc4cc(-c5cnn(C)c5)ccc4cn3)ccn2)CC1 | 98.5
* COc1ccc([C@@H](O)c2cc(-c3ncnc4cc(N5CCOCC5)ccc34)c(F)cc2Cl)nn1 + CN1CCN(c2cc(C(=O)Nc3cc4cc(-c5cnn(C)c5)ccc4cn3)ccn2)CC1 | 92.5
* C=CC(=O)N1CCN(c2nc(=O)n(-c3c(C)ccnc3C(C)C)c3nc(-c4c(O)cccc4F)c(F)cc23)C(C)C1 (stereo not given) + CN1CCN(c2cc(C(=O)Nc3cc4cc(-c5cnn(C)c5)ccc4cn3)ccn2)CC1 | 103
* CC(CO)NC(=O)c1cc(-c2ccc(Cl)cc2)nn(-c2cnn(C)c2)c1=O (stereo not given) + CNC(=O)c1ccc(Nc2nc(OC3CCCC3)c3c(-c4ccc5nc(C)oc5c4)c[nH]c3n2)c(OC)c1 | 64.6
* CCc1c2c(nc3ccc(O)cc13)-c1cc3c(c(=O)n1C2)COC(=O)[C@]3(O)CC + CN1CCN(c2cc(C(=O)Nc3cc4cc(-c5cnn(C)c5)ccc4cn3)ccn2)CC1 | 58.5

List reported viability, T/C for each of these compounds:
1. COc1ccc([C@@H](O)c2cc(-c3ncnc4cc(N5CCOCC5)ccc34)c(F)cc2Cl)nn1 + CNC(=O)c1ccc(Nc2nc(OC3CCCC3)c3c(-c4ccc5nc(C)oc5c4)c[nH]c3n2)c(OC)c1
2. C#Cc1c(F)ccc2cc(O)cc(-c3ncc4c(N5CC6CCC(C5)N6)nc(OCC56CCCN5CC(F)C6)nc4c3F)c12 (stereo not given) + CN1CCN(c2cc(C(=O)Nc3cc4cc(-c5cnn(C)c5)ccc4cn3)ccn2)CC1
3. COC1C=CCC(C)C(C)S(=O)(=O)NC(=O)c2ccc3c(c2)N(CC2CCC21)CC1(CCCc2cc(Cl)ccc21)CO3 (stereo not given) + CNC(=O)c1ccc(Nc2nc(OC3CCCC3)c3c(-c4ccc5nc(C)oc5c4)c[nH]c3n2)c(OC)c1
4. CC(=O)O[C@H]1C(=O)[C@@]2(C)[C@H]([C@H](OC(=O)c3ccccc3)[C@]3(O)C[C@H](OC(=O)[C@H](O)[C@@H](NC(=O)c4ccccc4)c4ccccc4)C(C)=C1C3(C)C)[C@]1(OC(C)=O)CO[C@@H]1C[C@@H]2O + CNC(=O)c1ccc(Nc2nc(OC3CCCC3)c3c(-c4ccc5nc(C)oc5c4)c[nH]c3n2)c(OC)c1

### Response
[52.1, 92, 61, 81]

List reported viability, T/C for each of these compounds:
1. C#Cc1c(F)ccc2cc(O)cc(-c3ncc4c(N5CC6CCC(C5)N6)nc(OCC56CCCN5CC(F)C6)nc4c3F)c12 (stereo not given) + CNC(=O)c1ccc(Nc2nc(OC3CCCC3)c3c(-c4ccc5nc(C)oc5c4)c[nH]c3n2)c(OC)c1
2. CC(Nc1ccc2c(c1)OCCn1cc(N3C(=O)OCC3C(F)F)nc1-2)C(N)=O (stereo not given) + CNC(=O)c1ccc(Nc2nc(OC3CCCC3)c3c(-c4ccc5nc(C)oc5c4)c[nH]c3n2)c(OC)c1
3. CC1(C)CCC(CN2CCN(c3ccc(C(=O)NS(=O)(=O)c4ccc(NCC5CCOCC5)c([N+](=O)[O-])c4)c(Oc4cnc5[nH]ccc5c4)c3)CC2)=C(c2ccc(Cl)cc2)C1 + CN1CCN(c2cc(C(=O)Nc3cc4cc(-c5cnn(C)c5)ccc4cn3)ccn2)CC1
4. CCc1c2c(nc3ccc(O)cc13)-c1cc3c(c(=O)n1C2)COC(=O)[C@]3(O)CC + CNC(=O)c1ccc(Nc2nc(OC3CCCC3)c3c(-c4ccc5nc(C)oc5c4)c[nH]c3n2)c(OC)c1
5. COc1c(OCCCN2CCOCC2)ccc2c3n(c(=NC(=O)c4cnc(N)nc4)nc12)CCN3 + CNC(=O)c1ccc(Nc2nc(OC3CCCC3)c3c(-c4ccc5nc(C)oc5c4)c[nH]c3n2)c(OC)c1
6. Nc1ccccc1NC(=O)c1ccc(CNC(=O)OCc2cccnc2)cc1 + CNC(=O)c1ccc(Nc2nc(OC3CCCC3)c3c(-c4ccc5nc(C)oc5c4)c[nH]c3n2)c(OC)c1
7. COC1C=CCC(C)C(C)S(=O)(=O)NC(=O)c2ccc3c(c2)N(CC2CCC21)CC1(CCCc2cc(Cl)ccc21)CO3 (stereo not given) + CN1CCN(c2cc(C(=O)Nc3cc4cc(-c5cnn(C)c5)ccc4cn3)ccn2)CC1

### Response
74.9
65.7
97
45.1
45.7
66.7
80

List reported viability, T/C for each of these compounds:
1. C=C(F)C(=O)N1CCN(c2nc(OCC3CCCN3C)nc3c2CCN(c2cccc4cccc(Cl)c24)C3)CC1CC#N (stereo not given) + CNC(=O)c1ccc(Nc2nc(OC3CCCC3)c3c(-c4ccc5nc(C)oc5c4)c[nH]c3n2)c(OC)c1
2. C=CC(=O)N1CCN(c2nc(=O)n(-c3c(C)ccnc3C(C)C)c3nc(-c4c(O)cccc4F)c(F)cc23)C(C)C1 (stereo not given) + CNC(=O)c1ccc(Nc2nc(OC3CCCC3)c3c(-c4ccc5nc(C)oc5c4)c[nH]c3n2)c(OC)c1
3. Nc1ccn(C2OC(CO)C(O)C2(F)F)c(=O)n1 (stereo not given) + CN1CCN(c2cc(C(=O)Nc3cc4cc(-c5cnn(C)c5)ccc4cn3)ccn2)CC1

### Response
[64.9, 76.4, 71]
